- MEASUREMENT NOTES: BET inhibitor-based combinations targeting novel dependencies in MECOM-rearranged (r) AML: UCSD-AML1 cell line (AID 2202235); note: nearly all actives have a fitted effect of over 40% in size
- ASSAY SETUP: UCSD-AML1 AML cells viability, CellTiter-Glo, 48 h; series mostly up to 46 µM
- Protocol: Ecotropic viral insertion site 1 (EVI1) is located on chromosome 3q26.2 as part of the MECOM (MDS and EVI1 complex) locus. […] A collection of 2480 mechanistically annotated dugs (MIPE v5.0) was used to screen four 3q26.2 rearranged AML cell lines and three non-3q26.2 rearranged AML cell lines. […] Cell viability was determined by luminescence based, Cell Titer Glo assay (Promega). […] Luminescence readings were taken using a Viewlux (PerkinElmer) with a 2 s exposure time per plate. […]
Records with an inconclusive call do not appear. Calls of active or inactive are those of the source. Calls come from the whole dose curve; as a rule, active = well fitted inhibition curve with a large enough effect; inconclusive = small, poorly fitted or top-dose-only effect; inactive = no such curve, though single readings can be large or run the other way.
Lab note: assign the record to one of true for active, false for inactive

COMPOUND: Nc1ncnc2c1c(-c1cnc3[nH]ccc3c1)nn2C1CCCC1
QUALITATIVE LABEL: true

Query :: # outcome recorded in this test, key = `Cc1cc(SCc2sc(-c3ccc(C(F)(F)F)cc3)nc2C)ccc1OCC(=O)O`
Result :: false

Query :: How was `O=C(Nc1ccc(OC(F)(F)F)cc1)c1sccc1NCc1ccnc2ccccc12` classified in this test?
Result :: true

Query :: Hello, I am checking results. What call was entered for `CCCc1nn(C)c2c(=O)[nH]c(-c3cc(S(=O)(=O)N4CCN(C)CC4)ccc3OCC)nc12` ?
Result :: false
